Target: 3',5'-cyclic-AMP phosphodiesterase 4D (Homo sapiens)
Sequence (Q08499 whole entry): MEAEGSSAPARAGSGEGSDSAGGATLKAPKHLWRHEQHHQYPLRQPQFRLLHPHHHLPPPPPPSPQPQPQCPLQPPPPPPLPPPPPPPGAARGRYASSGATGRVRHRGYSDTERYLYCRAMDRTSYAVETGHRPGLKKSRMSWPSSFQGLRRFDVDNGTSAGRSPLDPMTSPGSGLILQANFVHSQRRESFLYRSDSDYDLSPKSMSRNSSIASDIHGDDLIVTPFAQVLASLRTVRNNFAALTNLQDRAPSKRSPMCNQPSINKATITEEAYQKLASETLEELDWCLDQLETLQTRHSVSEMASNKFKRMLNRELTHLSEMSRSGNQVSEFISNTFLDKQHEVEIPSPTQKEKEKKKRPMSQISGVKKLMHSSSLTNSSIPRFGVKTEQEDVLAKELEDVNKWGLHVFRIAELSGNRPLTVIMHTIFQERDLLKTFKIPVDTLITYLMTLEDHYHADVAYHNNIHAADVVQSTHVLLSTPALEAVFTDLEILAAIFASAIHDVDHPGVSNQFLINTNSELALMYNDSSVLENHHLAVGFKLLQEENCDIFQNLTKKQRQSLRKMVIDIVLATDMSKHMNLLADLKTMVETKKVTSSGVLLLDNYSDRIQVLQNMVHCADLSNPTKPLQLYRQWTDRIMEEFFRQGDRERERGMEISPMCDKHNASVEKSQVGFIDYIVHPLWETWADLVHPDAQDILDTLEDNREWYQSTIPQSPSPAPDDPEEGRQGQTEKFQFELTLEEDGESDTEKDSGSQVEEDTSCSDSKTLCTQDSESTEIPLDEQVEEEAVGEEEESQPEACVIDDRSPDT
Assay: Inhibition of human U-937 cells derived PDE4D using [3H] cAMP as substrate measured after 30 mins
Response field label takes y when IC50 is strictly below 100 µM and n in all other cases.

These solved cases illustrate the format of a correct answer.
chemical_structure	label_class
Cc1ccc(-c2nc(C(=O)N3CCS/C3=N/C#N)co2)cc1	y
N#C/N=C1/SCCN1Cc1ccc(-c2ccc(F)cc2)o1	n
COc1ccc(-c2ccc(CN3CCS/C3=N/C#N)o2)cc1	y
N#C/N=C1/SCCN1Cc1ccc(-c2c(F)cccc2F)o1	n

Field: next compound
Does this compound meet the criterion IC50 < 100 µM? `Cc1ccc(-c2ccc(C(=O)N3CCS/C3=N/C#N)o2)cc1`
y

====

Biological target: 3',5'-cyclic-AMP phosphodiesterase 4B (Homo sapiens, UniProt Q07343)
Sequence (Q07343 whole entry): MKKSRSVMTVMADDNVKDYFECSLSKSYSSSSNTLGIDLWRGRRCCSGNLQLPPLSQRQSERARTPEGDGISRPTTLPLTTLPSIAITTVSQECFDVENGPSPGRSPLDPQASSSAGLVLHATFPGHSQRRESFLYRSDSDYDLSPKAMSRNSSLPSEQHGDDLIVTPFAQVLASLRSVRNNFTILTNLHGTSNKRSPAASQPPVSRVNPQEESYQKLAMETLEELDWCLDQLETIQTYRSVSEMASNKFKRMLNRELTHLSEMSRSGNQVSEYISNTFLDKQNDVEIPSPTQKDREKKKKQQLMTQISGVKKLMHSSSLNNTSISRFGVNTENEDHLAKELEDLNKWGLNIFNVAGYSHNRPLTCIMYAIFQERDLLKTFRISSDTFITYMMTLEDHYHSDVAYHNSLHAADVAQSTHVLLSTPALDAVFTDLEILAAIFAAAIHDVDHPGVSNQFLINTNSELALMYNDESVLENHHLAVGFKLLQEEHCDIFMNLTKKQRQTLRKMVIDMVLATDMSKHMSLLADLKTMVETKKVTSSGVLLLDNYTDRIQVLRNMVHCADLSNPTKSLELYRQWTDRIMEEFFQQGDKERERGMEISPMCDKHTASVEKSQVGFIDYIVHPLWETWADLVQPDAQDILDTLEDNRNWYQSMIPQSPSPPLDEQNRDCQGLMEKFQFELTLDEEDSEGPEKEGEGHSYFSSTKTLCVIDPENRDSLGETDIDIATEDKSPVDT
Assay: Inhibition of human U-937 cells derived PDE4B using [3H] cAMP as substrate measured after 30 mins
attribute_measured: IC50 (µM)
Unit µM implied. Number only.

chemical_structure	test_target	IC50 (µM)
N#C/N=C1/SCCN1C(=O)c1ccc(-c2ccccc2Cl)o1	3',5'-cyclic-AMP phosphodiesterase 4B (Homo sapiens, UniProt Q07343)	62.8
Cc1ccc(-c2nc(C(=O)N3CCS/C3=N/C#N)co2)cc1	3',5'-cyclic-AMP phosphodiesterase 4B (Homo sapiens, UniProt Q07343)	9.2

Please examine the following record next.
# return IC50 of `N#C/N=C1/SCCN1Cc1ccc(-c2ccc(Cl)cc2)o1` (system: 3',5'-cyclic-AMP phosphodiesterase 4B (Homo sapiens, UniProt Q07343))
15.7

====

Biological target: 3',5'-cyclic-AMP phosphodiesterase 4B (Homo sapiens, UniProt Q07343)
Assay: Inhibition of human U-937 cells derived PDE4B using [3H] cAMP as substrate measured after 30 mins
Category scheme (IC50): lowest = under 20 µM, middle = from 20 µM up to 50 µM, highest = 50 µM and over

These solved cases illustrate the format of a correct answer.
chemical_structure	label_class
N#C/N=C1/SCCN1C(=O)c1coc(-c2ccc(Br)cc2)n1	middle
N#C/N=C1/SCCN1C(=O)c1ccc(-c2ccc(F)cc2)o1	lowest
N#C/N=C1/SCCN1Cc1ccc(-c2cccc(Cl)c2)o1	highest
N#C/N=C1/SCCN1C(=O)c1ccc(-c2cccc(F)c2)o1	middle
N#C/N=C1/SCCN1Cc1ccc(-c2ccccc2)o1	highest

Which class does `N#C/N=C1/SCCN1C(=O)c1coc(-c2ccccc2F)n1` fall in?
highest

Which class does `N#C/N=C1/SCCN1C(=O)c1ccc(-c2ccccc2)o1` fall in?
highest

Which class does `N#C/N=C1/SCCN1Cc1ccc(-c2ccccc2Cl)o1` fall in?
highest

Which class does `N#C/N=C1/SCCN1C(=O)c1coc(-c2ccccc2)n1` fall in?
highest

Which class does `Cc1ccc(-c2ccc(C(=O)N3CCS/C3=N/C#N)o2)cc1` fall in?
lowest

====

Molecular target: 3',5'-cyclic-AMP phosphodiesterase 4B (Homo sapiens)
Assay: Inhibition of human U-937 cells derived PDE4B using [3H] cAMP as substrate measured after 30 mins
Response field label takes met when IC50 is strictly below 40 µM and not met in all other cases.

chemical_structure	label_class
N#C/N=C1/SCCN1C(=O)c1coc(-c2ccc(F)cc2)n1	met

Field: next compound
Does this compound meet the criterion IC50 < 40 µM? `COc1ccc(-c2ccc(C(=O)N3CCS/C3=N/C#N)o2)cc1`
met

====

Species on record: Homo sapiens
Assay: Selectivity ratio of IC50 for inhibition of human U937 cells derived PDE4D to inhibition of human U937 cells derived PDE4B
Give yes (1) when the value for Ratio IC50 is at least 6. Give no (0) when it is less.

chemical_structure	label_class
COc1ccc(-c2ccc(C(=O)N3CCS/C3=N/C#N)o2)cc1	yes (1)
N#C/N=C1/SCCN1C(=O)c1coc(-c2ccc(F)cc2)n1	yes (1)
N#C/N=C1/SCCN1Cc1ccc(-c2c(F)cccc2F)o1	no (0)

Field: next compound
Item `COc1ccc(-c2ccc(CN3CCS/C3=N/C#N)o2)cc1` with Ratio IC50 of 6 or above?
no (0)

====

System: Rattus norvegicus
Test: Antiinflammatory activity in LPS induced Sprague-Dawley rat model of asthma and COPD assessed as inhibition of neutrophilia at 10 mg/kg, po preincubated for 30 mins followed by LPS stimulation and measured after 6 hrs relative to control
Type: functional
Settings: time 6.5 hrs
Listed here: items and their measured inhibition in vivo at 10 mg/kg.
Unit % implied. Number only.

compound	test_target	result_value
COc1ccc(-c2ccc(C(=O)N3CCS/C3=N/C#N)o2)cc1	Rattus norvegicus	33.8
COc1ccc(C2CNC(=O)C2)cc1OC1CCCC1 (centres undefined)	Rattus norvegicus	36.8
COc1ccc(-c2nc(C(=O)N3CCS/C3=N/C#N)co2)cc1	Rattus norvegicus	42.1

Please examine the following record next.
Specify measured inhibition in vivo at 10 mg/kg for `COc1ccc(-c2ccc(CN3CCS/C3=N/C#N)o2)cc1` .
28.7

====

Listed here: items and their measured IC50.
Target: 3',5'-cyclic-AMP phosphodiesterase 4B (Homo sapiens, UniProt Q07343)
Test: Inhibition of PDE4B in human PBMC assessed as reduction in LPS-induced TNFalpha release preincubated for 30 mins followed by LPS stimulation and measured after 18 hrs by TR-FRET assay

A selection of reference data follows.
chemical_structure	result_value
N#C/N=C1/SCCN1C(=O)c1coc(-c2ccccc2)n1	142 µM
Cc1ccc(-c2nc(C(=O)N3CCS/C3=N/C#N)co2)cc1	35.2 µM
N#C/N=C1/SCCN1C(=O)c1coc(-c2ccccc2Cl)n1	101 µM
N#C/N=C1/SCCN1Cc1ccc(-c2ccccc2)o1	199 µM
N#C/N=C1/SCCN1C(=O)c1coc(-c2ccc(F)cc2)n1	22.1 µM

Specify measured IC50 for `N#C/N=C1/SCCN1Cc1ccc(-c2cccc(F)c2)o1` .
89.5 µM

====

Species on record: Homo sapiens
Assay: Selectivity ratio of IC50 for inhibition of human U937 cells derived PDE4D to inhibition of human U937 cells derived PDE4B
Category scheme (Ratio IC50): class 0: < 4; class 1: ≥ 4 and < 6; class 2: ≥ 6

Which class does `N#C/N=C1/SCCN1C(=O)c1coc(-c2ccc(Cl)cc2)n1` fall in?
class 2

Which class does `N#C/N=C1/SCCN1Cc1ccc(-c2ccc(Cl)cc2)o1` fall in?
class 0

====

Listed here: items and their measured IC50.
Molecular target: UniProtKB Q07343
Assay: Inhibition of PDE4B in human PBMC assessed as reduction in LPS-induced TNFalpha release preincubated for 30 mins followed by LPS stimulation and measured after 18 hrs by TR-FRET assay
Unit µM implied. Number only.

A selection of reference data follows.
chemical_structure	IC50 [µM]
N#C/N=C1/SCCN1C(=O)c1ccc(-c2cccc(Cl)c2)o1	74.3
N#C/N=C1/SCCN1C(=O)c1ccc(-c2ccc(F)cc2)o1	29.8

Please examine the following record next.
Specify measured IC50 for `COc1ccc(-c2ccc(CN3CCS/C3=N/C#N)o2)cc1` .
36.8

====

Target: 3',5'-cyclic-AMP phosphodiesterase 4B (Homo sapiens, UniProt Q07343)
Experiment: Inhibition of PDE4B in human PBMC assessed as reduction in LPS-induced TNFalpha release preincubated for 30 mins followed by LPS stimulation and measured after 18 hrs by TR-FRET assay
Listed here: items and their measured IC50.
Unit µM implied. Number only.

A selection of reference data follows.
chemical_structure	IC50, µM
N#C/N=C1/SCCN1Cc1ccc(-c2cccc(Cl)c2)o1	89.7
N#C/N=C1/SCCN1C(=O)c1coc(-c2ccc(Br)cc2)n1	131
Cc1ccc(-c2ccc(CN3CCS/C3=N/C#N)o2)cc1	53.9
N#C/N=C1/SCCN1C(=O)c1ccc(-c2cccc(F)c2)o1	72.6
N#C/N=C1/SCCN1C(=O)c1coc(-c2cccc(F)c2)n1	64.3
N#C/N=C1/SCCN1Cc1ccc(-c2ccccc2F)o1	121
N#C/N=C1/SCCN1C(=O)c1ccc(-c2ccccc2)o1	170
COc1ccc(-c2nc(C(=O)N3CCS/C3=N/C#N)co2)cc1	11.8
Cc1ccc(-c2ccc(C(=O)N3CCS/C3=N/C#N)o2)cc1	41.3
N#C/N=C1/SCCN1C(=O)c1coc(-c2ccccc2F)n1	92.8

# return IC50 of `N#C/N=C1/SCCN1Cc1ccc(-c2ccc(Cl)cc2)o1` (system: 3',5'-cyclic-AMP phosphodiesterase 4B (Homo sapiens, UniProt Q07343))
44.2

# return IC50 of `N#C/N=C1/SCCN1C(=O)c1ccc(-c2ccccc2F)o1` (system: 3',5'-cyclic-AMP phosphodiesterase 4B (Homo sapiens, UniProt Q07343))
110

# return IC50 of `N#C/N=C1/SCCN1C(=O)c1ccc(-c2ccc(Br)cc2)o1` (system: 3',5'-cyclic-AMP phosphodiesterase 4B (Homo sapiens, UniProt Q07343))
139

# return IC50 of `N#C/N=C1/SCCN1C(=O)c1coc(-c2ccc(Cl)cc2)n1` (system: 3',5'-cyclic-AMP phosphodiesterase 4B (Homo sapiens, UniProt Q07343))
27.2

# return IC50 of `N#C/N=C1/SCCN1Cc1ccc(-c2ccc(Br)cc2)o1` (system: 3',5'-cyclic-AMP phosphodiesterase 4B (Homo sapiens, UniProt Q07343))
156
